subject of test: Fyn (UniProt P06241)
Sequence (P06241 whole entry, looked up): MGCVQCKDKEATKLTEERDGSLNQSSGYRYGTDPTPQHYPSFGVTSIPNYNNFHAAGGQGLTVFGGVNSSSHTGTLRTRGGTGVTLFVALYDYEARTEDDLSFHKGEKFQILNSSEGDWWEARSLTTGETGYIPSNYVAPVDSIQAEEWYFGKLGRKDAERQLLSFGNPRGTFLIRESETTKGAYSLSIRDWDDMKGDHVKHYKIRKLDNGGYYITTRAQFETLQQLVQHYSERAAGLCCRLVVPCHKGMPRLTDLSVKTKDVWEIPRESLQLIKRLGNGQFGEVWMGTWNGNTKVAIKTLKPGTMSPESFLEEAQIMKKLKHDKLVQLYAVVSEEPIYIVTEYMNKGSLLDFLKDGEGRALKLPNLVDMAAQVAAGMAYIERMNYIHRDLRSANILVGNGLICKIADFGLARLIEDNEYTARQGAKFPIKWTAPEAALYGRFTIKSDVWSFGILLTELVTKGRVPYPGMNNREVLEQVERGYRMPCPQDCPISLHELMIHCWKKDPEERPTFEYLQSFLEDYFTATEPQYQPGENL
assay overview: phosphorylation enrichment, bacterial display (enrichment ratio); higher = better substrate or ligand; peptides without Tyr show the background
Below, each entry is listed with its recorded phosphorylation enrichment.
Just the number.

The cases that follow already have their phosphorylation enrichment on record.
RREQDYTNLPS [CSF1R_Y923_R921Q]
0.446
ERLLDYTRTVQ [INPP5E_Y439]
0.495
ERSMSYSDESR [SMG1_Y143]
0.463
ENGPYYTSYPP [GDAP2_Y488]
3.58
FPPDGYSRHCE [CTNND1_Y213_Y217C_YF]
0.431
KALSLYTKLMN [STAM_Y371_E366K]
0.46

# input Quick check: phosphorylation enrichment of RFGKVYKAHLF [ROR2_Y488_G490A] ?
# output 0.57

---

# Lookup of reported phosphorylation enrichment keyed by entry
Tested on: c-Abl (mouse)
assay overview: phosphorylation enrichment, bacterial display (enrichment ratio); higher = better substrate or ligand; peptides without Tyr show the background
No unit in the answer, please; the number alone is enough.

SFPSTYRFERG [INPPL1_Y661_P659S_YF]
0.644
IPGGIYDADLN [CST4_Y35]
1.14
SARFRYLLAEK [LDHB_Y173_M175L]
0.783
GESQGYDIMEA [MSH2_Y863_P868A]
0.577
FPPDGYSRHCE [CTNND1_Y213_Y217C_YF]
0.584

Consider now this further sequence.
# input Entry under review: SLDLSYFPTSS [EMD_Y181_YF] . Reported phosphorylation enrichment?
# output 0.632

---

subject of test: c-Src SH2
assay overview: SH2 binding enrichment of the phosphorylated peptide, bacterial display (enrichment ratio); higher = better substrate or ligand; peptides without Tyr show the background
Grouping by measured SH2 binding enrichment is done with the following cut points: lower bin (below 0.5), middle bin (0.5 to below 0.8), upper bin (0.8 or more)

PRIHSYRGHLW [VHL_Y112_R107P]
upper bin

# input Kindly identify the class of MIRSAYALGGL [CPS1_Y590] .
# output lower bin

# input Hi there! Could you help me figure out the category for ISRVLYPNDNF [PYGM_Y281] please?
# output lower bin

# input Please indicate the class for PVKDPYVMFPQ [PLEKHG2_Y489] based on its SH2 binding enrichment.
# output upper bin

# input For VTQEQYELYCE [CBL_Y368] , which SH2 binding enrichment bin applies?
# output middle bin

# input Which category does the recorded SH2 binding enrichment put PGQAAYQKVVA [HBB_Y131_V127G] in?
# output upper bin

# input Kindly state the category for this sequence: LLLLFYVVRFC [MPZ_Y177_YF]
# output upper bin

# input Kindly state the category for this sequence: SGRRRYTIAAL [TTR_Y125_P122R]
# output lower bin

# input Dear colleague, I would appreciate it if you could identify the bin for NFNPNYCFAGK [ALK_Y1096_D1091N_YF] and reply at your convenience.
# output middle bin

# input Which SH2 binding enrichment category applies to SARFRYLLAEK [LDHB_Y173_M175L] here?
# output lower bin

# input Using the reported SH2 binding enrichment, which band applies to EEEPVYKAEPE [HCLS1_Y360_E361K] ?
# output middle bin

# input Assign a bin to RTLSEYARRHV [RERE_Y1259_P1262R]
# output lower bin

# input Entry FMKEPYIQSRF [HIPK4_Y175_V171M_YF] belongs to which category?
# output middle bin

# input Hi there! Could you help me figure out the category for RIDPDYMGRVR [IGSF9_Y81_V82M] please?
# output middle bin
